Biological target: Microtubule-associated protein tau (Homo sapiens) (UniProt P10636)
Sequence (P10636 561-689 P618L limits assumed): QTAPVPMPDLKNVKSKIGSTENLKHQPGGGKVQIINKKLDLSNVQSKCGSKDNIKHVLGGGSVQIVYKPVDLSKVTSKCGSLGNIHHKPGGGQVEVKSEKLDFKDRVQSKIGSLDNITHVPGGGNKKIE
Assay: qHTS for Inhibitors of Tau Fibril Formation, Fluorescence Polarization; further: nearly all actives have a fitted effect of over 55% in size
Details: K18 P301L tau heparin fibrillization, Alexa594 FP, 6 h; series mostly up to 57.7 µM
The whole screen tested about 280,000 compounds, of which about 1,100 (0.39%) were called active. Not shown: some 7% with an inconclusive outcome. The call rests on the fitted dose curve; in most records, active means well fitted inhibition curve with a large enough effect; inconclusive means small, poorly fitted or top-dose-only effect, or effect the other way; inactive means flat fitted curve, though single readings scatter. For the sample, actives were picked, then their nearest neighbours and some compounds at random.
Give one outcome, nothing more. List: 1 (yes) = active, 0 (no) = inactive

Cc1nc(SCCOc2ccc(Cl)cc2)[nH]c(=O)c1Cc1ccccc1 :: 0 (no)

Could you check what this test reported for CC(C)(C)c1nnc(NC(=O)C2c3ccccc3Oc3ccccc32)s1 ?
1 (yes)

Could you check what this test reported for Cc1ccc(OCCn2c(CNc3ccccc3C)nc3ccccc32)cc1 ?
0 (no)

Could you check what this test reported for O=C1OC(NC(=O)c2ccccc2)C(N2CCOCC2)=C1Cl (stereo unspecified) ?
0 (no)

Could you check what this test reported for COc1ccc(-c2cn3c(C)c(C(=O)Nc4cc(C)cc(C)c4)sc3n2)cc1 ?
0 (no)

Could you check what this test reported for COc1ccccc1N1CCN(C2C(=O)c3ccccc3N2C(C)=O)CC1 (stereo unspecified) ?
0 (no)

Could you check what this test reported for O=c1c(O)c(Br)ccc2c(Br)c(O)c(O)c(O)c12 ?
1 (yes)

Could you check what this test reported for CCN1C(=O)c2ccccc2S(=O)c2ccc(C(=O)NCc3ccc(F)cc3)cc21 (stereo unspecified) ?
0 (no)

Could you check what this test reported for Cc1ccc(N(C)C(=O)C2CCN(S(=O)(=O)c3ccc4c(c3)CCCN4C(=O)C3CCC3)CC2)cc1 ?
0 (no)

Could you check what this test reported for O=C(Nc1ccccc1)Nc1nnc(COc2ccccc2F)s1 ?
1 (yes)

Could you check what this test reported for CCC(C)NC(=O)C1c2ccccc2Oc2ccccc21 (stereo unspecified) ?
0 (no)
